Source: the supplement of paper PMC8728848

molecular target: Neu5Ac(a2-6)Gal(b1-4)GlcNAc6S; test: glycan array binding signal (z-score within array); higher = stronger binding; conditions: glycan notation: IUPAC condensed, linker removed
This excerpt belongs to a sample that is enriched for the strongest signals.
Readout Label: glycan array binding signal (z-score)
Give bare numbers.

Binder	glycan array binding signal (z-score)
SEX4 (Arabidopsis thaliana), Q944A8 (protein) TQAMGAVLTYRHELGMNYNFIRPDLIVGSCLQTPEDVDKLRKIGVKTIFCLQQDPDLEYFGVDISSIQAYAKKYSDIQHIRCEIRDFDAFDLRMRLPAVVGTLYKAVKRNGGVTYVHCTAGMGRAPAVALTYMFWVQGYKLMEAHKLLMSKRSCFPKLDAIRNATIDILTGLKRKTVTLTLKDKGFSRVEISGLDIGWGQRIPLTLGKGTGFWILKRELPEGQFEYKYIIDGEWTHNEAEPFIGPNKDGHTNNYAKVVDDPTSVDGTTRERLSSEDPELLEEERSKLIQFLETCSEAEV	2.46
AT1G15820(NC) (Arabidopsis thaliana) (protein) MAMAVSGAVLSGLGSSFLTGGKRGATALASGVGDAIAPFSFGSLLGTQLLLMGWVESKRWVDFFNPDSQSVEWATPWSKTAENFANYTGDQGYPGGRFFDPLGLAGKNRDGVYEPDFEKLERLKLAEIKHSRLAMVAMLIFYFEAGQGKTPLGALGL	-0.322

// lookup glycan array binding signal (z-score) for DC-SIGN (Canis lupus), XP_853402 (protein) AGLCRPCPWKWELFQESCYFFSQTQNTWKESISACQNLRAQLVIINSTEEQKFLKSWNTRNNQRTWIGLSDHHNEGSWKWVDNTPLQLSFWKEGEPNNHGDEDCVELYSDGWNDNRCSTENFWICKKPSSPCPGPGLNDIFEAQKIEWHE
-0.341
